The origin of these recorded values is patent US20060110456A1.

test system: marine bacteria (26 strains); experiment: Disk inhibition assay; format: cell-based, marine bacteria isolated from Singapore fouling communities; details: strain 3 (Erythrobacter); 25 μg per disc
Where a name gives a salt, the structure may show the parent alone.
Entries and their measured zone of inhibition at 25 µg/disc follow.

Examples with their reported zone of inhibition at 25 µg/disc follow.
CNCCC(Oc1ccc(C(F)(F)F)cc1)c1ccccc1 (stereo not shown) [PZC, fluoxetine hydrochloride] :: 10 to 19 mm
CN1CCN(CCCN2c3ccccc3Sc3ccc(C(F)(F)F)cc32)CC1 [TFZ, Trifluoperazine hydrochloride] :: 10 to 19 mm
CN1CCN(CCCN2c3ccccc3Sc3ccc(Cl)cc32)CC1 [PCZ, prochlorperazine maleate] :: 10 to 19 mm

Incoming: Field request: zone of inhibition at 25 µg/disc | item: `[H]/N=C(/N)N[C@H]1[C@H](O)[C@@H](O)[C@H](O[C@@H]2O[C@@H](C)[C@](O)(C=O)[C@H]2O[C@@H]2O[C@@H](CO)[C@H](O)[C@@H](O)[C@@H]2NC)[C@@H](N/C(N)=N\[H])[C@@H]1O`
Outgoing: < 6 mm

###

system: marine bacteria (ten strains); test: Bio-adhesion assay (crystal violet microplate); type: cell-based, marine bacteria isolated from Singapore fouling communities; details: strain 9 (Bacillus); hydrophobic surface (untreated polystyrene); 50 μl of 125 μg ml^−1 drug + 200 μl bacteria, 2 hours
Where a name gives a salt, the structure may show the parent alone.
measurementName: Effect of drugs on adhesion of bacteria

Cc1nccn1CC1CCc2c(c3ccccc3n2C)C1=O (stereo not drawn) [ZFN, ondansetron hydrochloride] :: *** (*** p < 0.005)
Cc1cc2c(s1)Nc1ccccc1N=C2N1CCN(C)CC1 :: *** (*** p < 0.005)

###

Entries and their measured log10 LD50 follow.
tested on: Balanus amphitrite stage II naupliar larvae; settings: barnacle nauplii, 22 to 24 hours; concentration that caused 50% mortality
Where a name gives a salt, the structure may show the parent alone.
# values: log10(LD50), units ng/mL

Cc1cc2c(s1)Nc1ccccc1N=C2N1CCN(C)CC1 [ZPX, olanzapine] :: 2.70
CN1CCN(CCCN2c3ccccc3Sc3ccc(C(F)(F)F)cc32)CC1 [TFZ, Trifluoperazine hydrochloride] :: 0.97
CN[C@H]1CC[C@@H](c2ccc(Cl)c(Cl)c2)c2ccccc21.Cl [ZLT, sertraline hydrochloride] :: 0.20
CN1CCN(CCCN2c3ccccc3Sc3ccc(Cl)cc32)CC1 [PCZ, prochlorperazine maleate] :: 0.55
Cc1nccn1CC1CCc2c(c3ccccc3n2C)C1=O (stereo not shown) [ZFN, ondansetron hydrochloride] :: 2.67

Incoming: Field request: log10 LD50 | item: CN1CCN(C(c2ccccc2)c2ccccc2)CC1 [CYZ, Cyclizine hydrochloride]
Outgoing: 1.79

Incoming: Field request: log10 LD50 | item: CN(C)C(=O)C(CCN1CCC(O)(c2ccc(Cl)cc2)CC1)(c1ccccc1)c1ccccc1 [IMD, Loperamide hydrochloride]
Outgoing: 2.38

###

test system: barnacle nauplii; test: Toxicity of drugs under different light conditions and over time (stability in seawater); type: in vivo, Balanus amphitrite; settings: 25 ug ml^−1 seawater suspension, 12 h light and 12 h dark, after 4 weeks
Where a name gives a salt, the structure may show the parent alone.
measurementName: Change in toxicity on ageing in seawater, 12L:12D condition

CCCCCCCCCC(=O)OC1(c2ccc(Cl)cc2)CCN(CCCC(=O)c2ccc(F)cc2)CC1 [HDL, haloperidol decanoate] :: increased in toxicity
Cc1nccn1CC1CCc2c(c3ccccc3n2C)C1=O (stereo not shown) [ZFN, ondansetron hydrochloride] :: increased in toxicity

###

System: biofilm bacteria (strains 4, 9, 14, 20, 27, 28)
Test: Effect of pharmaceuticals on adhesion of bacteria to plastic / biofilm formation on NTC and TC plates
Format: cell-based, marine bacteria isolated from Singapore fouling communities
Conditions: crude rank, best (1) to worst (8)
Method: Commercial forms of pharmaceuticals were used as previously described. […] These samples were sonicated for at least 1 min and these fine suspensions were used as initial stock solutions. For studies of bacterial adhesion, the pharmaceuticals were first sterilized by soaking in absolute alcohol (Merck) for half an hour. […] The effect of pharmaceuticals on bacterial adhesion was analyzed using a modified microplate method adapted from Shea and Williamson (1990). […]
Structures can show the parent of a compound that is named as a salt.
# label = y if Prevention of formation of biofilm < 5 else n

Cc1cc2c(s1)Nc1ccccc1N=C2N1CCN(C)CC1 :: y

Incoming: Problem: For the compound CCCCCCCCCC(=O)OC1(c2ccc(Cl)cc2)CCN(CCCC(=O)c2ccc(F)cc2)CC1 [HDL, haloperidol decanoate] , is Prevention of formation of biofilm under 5?
Outgoing: n

Incoming: Problem: For the compound CN1CCN(CCCN2c3ccccc3Sc3ccc(Cl)cc32)CC1 [PCZ, prochlorperazine maleate] , is Prevention of formation of biofilm under 5?
Outgoing: y

Incoming: Problem: For the compound CN1CCN(C(c2ccccc2)c2ccccc2)CC1 [CYZ, Cyclizine hydrochloride] , is Prevention of formation of biofilm under 5?
Outgoing: n

###

test system: marine bacteria (26 strains); assay: Disk inhibition assay; assay type: cell-based, marine bacteria isolated from Singapore fouling communities; conditions: strain 12 (Gordonia); 25 μg per disc
Where a name gives a salt, the structure may show the parent alone.
Entries and their measured zone of inhibition at 25 µg/disc follow.

Examples with their reported zone of inhibition at 25 µg/disc follow.
[H]/N=C(/N)N[C@H]1[C@H](O)[C@@H](O)[C@H](O[C@@H]2O[C@@H](C)[C@](O)(C=O)[C@H]2O[C@@H]2O[C@@H](CO)[C@H](O)[C@@H](O)[C@@H]2NC)[C@@H](N/C(N)=N\[H])[C@@H]1O :: 10 to 19 mm
CN1CCN(CCCN2c3ccccc3Sc3ccc(C(F)(F)F)cc32)CC1 [TFZ, Trifluoperazine hydrochloride] :: 10 to 19 mm
CNCCC(Oc1ccc(C(F)(F)F)cc1)c1ccccc1 (stereo not shown) [PZC, fluoxetine hydrochloride] :: 10 to 19 mm

Proceeding to the next compound to report its zone of inhibition at 25 µg/disc.
Incoming: zone of inhibition at 25 µg/disc of CN1CCN(CCCN2c3ccccc3Sc3ccc(Cl)cc32)CC1 [PCZ, prochlorperazine maleate] on marine bacteria (26 strains)?
Outgoing: 10 to 19 mm

###

tested on: marine bacteria (26 strains); assay: Disk inhibition assay; type: cell-based, marine bacteria isolated from Singapore fouling communities; conditions: strain 8 (Bacillus); 25 μg per disc
Structures can show the parent of a compound that is named as a salt.
measurementName: zone of inhibition at 25 µg/disc

Examples with their reported zone of inhibition at 25 µg/disc follow.
CN1CCN(CCCN2c3ccccc3Sc3ccc(C(F)(F)F)cc32)CC1 [TFZ, Trifluoperazine hydrochloride] :: 5 to 9 mm
[H]/N=C(/N)N[C@H]1[C@H](O)[C@@H](O)[C@H](O[C@@H]2O[C@@H](C)[C@](O)(C=O)[C@H]2O[C@@H]2O[C@@H](CO)[C@H](O)[C@@H](O)[C@@H]2NC)[C@@H](N/C(N)=N\[H])[C@@H]1O :: 10 to 19 mm
CN1CCN(CCCN2c3ccccc3Sc3ccc(Cl)cc32)CC1 [PCZ, prochlorperazine maleate] :: 10 to 19 mm

Proceeding to the next molecule to report its zone of inhibition at 25 µg/disc.
Incoming: zone of inhibition at 25 µg/disc of CNCCC(Oc1ccc(C(F)(F)F)cc1)c1ccccc1 (stereo not shown) [PZC, fluoxetine hydrochloride] on marine bacteria (26 strains)?
Outgoing: 10 to 19 mm

###

system: marine bacteria (26 strains); assay: Disk inhibition assay; type: cell-based, marine bacteria isolated from Singapore fouling communities; conditions: strain 4 (Bacillus); 25 μg per disc
Where a name gives a salt, the structure may show the parent alone.
Entries and their measured zone of inhibition at 25 µg/disc follow.

Examples with their reported zone of inhibition at 25 µg/disc follow.
CNCCC(Oc1ccc(C(F)(F)F)cc1)c1ccccc1 (stereo not shown) [PZC, fluoxetine hydrochloride] :: 10 to 19 mm
CN1CCN(CCCN2c3ccccc3Sc3ccc(Cl)cc32)CC1 [PCZ, prochlorperazine maleate] :: 10 to 19 mm
CN1CCN(CCCN2c3ccccc3Sc3ccc(C(F)(F)F)cc32)CC1 [TFZ, Trifluoperazine hydrochloride] :: 10 to 19 mm

Incoming: Field request: zone of inhibition at 25 µg/disc | item: `[H]/N=C(/N)N[C@H]1[C@H](O)[C@@H](O)[C@H](O[C@@H]2O[C@@H](C)[C@](O)(C=O)[C@H]2O[C@@H]2O[C@@H](CO)[C@H](O)[C@@H](O)[C@@H]2NC)[C@@H](N/C(N)=N\[H])[C@@H]1O`
Outgoing: 10 to 19 mm

###

test system: biofilm bacteria (strains 4, 9, 14, 20, 27, 28); assay: Effect of pharmaceuticals on adhesion of bacteria to plastic / biofilm formation on NTC and TC plates; type: cell-based, marine bacteria isolated from Singapore fouling communities; conditions: crude rank, best (1) to worst (8)
Counter-ions that a name gives are not always drawn.
# label = 1 (yes) if Prevention of formation of biofilm < 5 else 0 (no)

CN1CCN(CCCN2c3ccccc3Sc3ccc(C(F)(F)F)cc32)CC1 [TFZ, Trifluoperazine hydrochloride] :: 1 (yes)
Cc1nccn1CC1CCc2c(c3ccccc3n2C)C1=O (centres unmarked) [ZFN, ondansetron hydrochloride] :: 1 (yes)
CN(C)C(=O)C(CCN1CCC(O)(c2ccc(Cl)cc2)CC1)(c1ccccc1)c1ccccc1 [IMD, Loperamide hydrochloride] :: 0 (no)

Now, please, on to the next molecule.
Incoming: Problem: For the molecule CN[C@H]1CC[C@@H](c2ccc(Cl)c(Cl)c2)c2ccccc21.Cl [ZLT, sertraline hydrochloride] , is Prevention of formation of biofilm under 5?
Outgoing: 1 (yes)
